Target chain: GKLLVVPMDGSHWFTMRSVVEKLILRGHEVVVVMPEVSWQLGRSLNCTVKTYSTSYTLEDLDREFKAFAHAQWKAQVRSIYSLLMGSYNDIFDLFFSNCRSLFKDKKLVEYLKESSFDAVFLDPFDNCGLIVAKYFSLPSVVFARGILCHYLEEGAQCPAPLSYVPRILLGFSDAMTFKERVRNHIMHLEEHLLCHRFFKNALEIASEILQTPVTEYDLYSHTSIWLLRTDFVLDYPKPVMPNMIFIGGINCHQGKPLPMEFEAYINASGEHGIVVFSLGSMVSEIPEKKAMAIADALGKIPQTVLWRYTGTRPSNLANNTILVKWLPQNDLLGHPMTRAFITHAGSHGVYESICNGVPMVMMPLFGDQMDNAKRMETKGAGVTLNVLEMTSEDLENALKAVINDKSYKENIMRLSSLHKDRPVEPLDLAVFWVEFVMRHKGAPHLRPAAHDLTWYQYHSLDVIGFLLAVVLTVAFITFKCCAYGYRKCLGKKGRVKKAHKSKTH
pIC50: −log10 of the molar value.
test.readout: pIC50

CCCSc1nc(N[C@@H]2C[C@H]2c2ccc(F)c(F)c2)c2nnn([C@@H]3C[C@H](OCCO[C@@H]4O[C@H](C(=O)O)[C@@H](O)[C@H](O)[C@H]4O)[C@@H](O)[C@H]3O)c2n1 [Ticagrelor-O-Glu, ticagrelor-O-glucuronide]    ~4.00

Kindly consider the entry below.
INPUT: # get_value(readout='pIC50', item= CCCSc1nc(N[C@@H]2C[C@H]2c2ccc(F)c(F)c2)c2nnn([C@@H]3C[C@H](OCCO)[C@@H](O)[C@H]3O)c2n1 )
OUTPUT: < 4.00
